# target_of_assay: Thymidine phosphorylase (Escherichia coli K-12)
# test_protocol: Inhibition of Escherichia coli Thymidine Phosphorylase at a concentration of 1000 uM after 60 minutes
observation_type: inhibition (%)

{"compound": "Cc1cn(C/C=C\\COCP(=O)(O)O)c(=O)[nH]c1=O", "unit_annotation": "%", "inhibition": 0}
{"compound": "Cc1cn(C/C=C\\COCP(=O)(OC(C)C)OC(C)C)c(=O)[nH]c1=O", "unit_annotation": "%", "inhibition": 0}
{"compound": "CCOP(=O)(CCCCCCCCCn1cc(C)c(=O)[nH]c1=O)OCC", "unit_annotation": "%", "inhibition": 2}
{"compound": "Cc1cn(CC(O)C(O)COCP(=O)(O)O)c(=O)[nH]c1=O (stereo unspecified)", "unit_annotation": "%", "inhibition": 0}
{"compound": "Cc1cn(CC(O)C(O)COCOCP(=O)(OC(C)C)OC(C)C)c(=O)[nH]c1=O (stereo unspecified)", "unit_annotation": "%", "inhibition": 0}
{"compound": "Cc1cn(COC/C=C\\COCP(=O)(O)O)c(=O)[nH]c1=O", "unit_annotation": "%", "inhibition": 0}

1 = Cc1cn(CC(O)C(O)COCP(=O)(OC(C)C)OC(C)C)c(=O)[nH]c1=O (stereo unspecified)
2 = Cc1cn(CCCCCCCP(=O)(O)O)c(=O)[nH]c1=O
3 = Cc1cn(CCCCCCP(=O)(O)O)c(=O)[nH]c1=O
In: Please rank these compounds by inhibition in descending order. Use the labels to give the ranking in the order requested.
Out: 2, 3, 1

* * *

# target_of_assay: Thymidine phosphorylase (Escherichia coli K-12)
# test_protocol: Inhibition of Escherichia coli Thymidine Phosphorylase at a concentration of 1000 uM after 20 minutes
observation_type: inhibition (%)

Solved entries (count: 4):
{"compound": "Cc1cn(CCCCOCOCP(=O)(OC(C)C)OC(C)C)c(=O)[nH]c1=O", "experimental_value": 0}
{"compound": "Nc1c(Br)c(=O)[nH]c(=O)n1CCCCCCCCP(=O)(O)O", "experimental_value": 94}
{"compound": "Cc1cn(CCCCCCCCCP(=O)(O)O)c(=O)[nH]c1=O", "experimental_value": 81}
{"compound": "Cc1cn(CCCCCCCCP(=O)(OC(C)C)OC(C)C)c(=O)[nH]c1=O", "experimental_value": 0}

1 = Cc1cn(CCCCOCOCP(=O)(O)O)c(=O)[nH]c1=O
2 = Cc1cn(C/C=C\COCOCP(=O)(O)O)c(=O)[nH]c1=O
In: Return label of the item with the larger inhibition. Candidates: 1 , 2 . Bench note: the answer is the label of the chosen record.
Out: 2

I = CCOP(=O)(CCCCCCCCn1c(N)c(Br)c(=O)[nH]c1=O)OCC
II = Cc1cn(COC/C=C\COCP(=O)(O)O)c(=O)[nH]c1=O
In: Return label of the item with the larger inhibition. Candidates: I , II . Bench note: the answer is the label of the chosen record.
Out: I
(I: 21%, II: 0%)

I = Cc1cn(CCCCCCCCP(=O)(O)O)c(=O)[nH]c1=O
II = Cc1cn(CC(O)C(O)COCP(=O)(OC(C)C)OC(C)C)c(=O)[nH]c1=O (stereo unspecified)
In: Please compare: I and II . Report which one has the smaller inhibition value. Bench note: the answer is the label of the chosen record.
Out: II

* * *

# target_of_assay: Thymidine phosphorylase (Escherichia coli K-12) (UniProt P07650)
# Sequence (P07650 whole entry, looked up): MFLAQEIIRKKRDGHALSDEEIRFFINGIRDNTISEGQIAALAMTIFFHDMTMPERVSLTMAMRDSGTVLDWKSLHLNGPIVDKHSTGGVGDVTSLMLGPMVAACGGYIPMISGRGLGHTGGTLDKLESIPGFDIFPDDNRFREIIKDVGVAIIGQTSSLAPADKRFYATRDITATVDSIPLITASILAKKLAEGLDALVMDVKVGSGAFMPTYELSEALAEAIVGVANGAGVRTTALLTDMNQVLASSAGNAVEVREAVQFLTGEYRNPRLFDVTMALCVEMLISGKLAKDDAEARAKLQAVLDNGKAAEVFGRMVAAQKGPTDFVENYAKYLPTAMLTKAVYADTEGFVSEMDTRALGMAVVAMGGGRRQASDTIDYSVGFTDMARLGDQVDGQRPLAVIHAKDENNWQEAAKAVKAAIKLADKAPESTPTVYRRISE
# test_protocol: Inhibition of Escherichia coli Thymidine Phosphorylase at a concentration of 1000 uM after 20 minutes
observation_type: inhibition (%)

Solved entries (count: 8):
{"molecule": "Cc1cn(C/C=C\\COCOCP(=O)(OC(C)C)OC(C)C)c(=O)[nH]c1=O", "target_of_assay": "Thymidine phosphorylase (Escherichia coli K-12) (UniProt P07650)", "experimental_value": 0}
{"molecule": "Cc1cn(C/C=C\\COCP(=O)(O)O)c(=O)[nH]c1=O", "target_of_assay": "Thymidine phosphorylase (Escherichia coli K-12) (UniProt P07650)", "experimental_value": 0}
{"molecule": "Cc1cn(CC(O)C(O)COCP(=O)(O)O)c(=O)[nH]c1=O (stereo not drawn)", "target_of_assay": "Thymidine phosphorylase (Escherichia coli K-12) (UniProt P07650)", "experimental_value": 0}
{"molecule": "Cc1cn(CCCCCCP(=O)(O)O)c(=O)[nH]c1=O", "target_of_assay": "Thymidine phosphorylase (Escherichia coli K-12) (UniProt P07650)", "experimental_value": 11}
{"molecule": "Cc1cn(C/C=C\\COCP(=O)(OC(C)C)OC(C)C)c(=O)[nH]c1=O", "target_of_assay": "Thymidine phosphorylase (Escherichia coli K-12) (UniProt P07650)", "experimental_value": 0}
{"molecule": "CCOP(=O)(CCCCCCCCCn1cc(C)c(=O)[nH]c1=O)OCC", "target_of_assay": "Thymidine phosphorylase (Escherichia coli K-12) (UniProt P07650)", "experimental_value": 4}
{"molecule": "Cc1cn(CC(O)C(O)COCOCP(=O)(OC(C)C)OC(C)C)c(=O)[nH]c1=O (stereo not drawn)", "target_of_assay": "Thymidine phosphorylase (Escherichia coli K-12) (UniProt P07650)", "experimental_value": 0}
{"molecule": "CCOP(=O)(CCCCCCCCn1cc(C)c(=O)[nH]c1=O)OCC", "target_of_assay": "Thymidine phosphorylase (Escherichia coli K-12) (UniProt P07650)", "experimental_value": 0}

A = Cc1cn(CCCCOCP(=O)(O)O)c(=O)[nH]c1=O
B = O=c1[nH]c(=O)n(CCCCCCCCP(=O)(O)O)c2[nH]ccc12
In: Please compare: A and B . Report which one has the smaller inhibition value. Bench note: the answer is the label of the chosen record.
Out: A
(A: 27%, B: 97%)

P = Cc1cn(CCCCCCCP(=O)(O)O)c(=O)[nH]c1=O
Q = Cc1cn(CCCCOCP(=O)(OC(C)C)OC(C)C)c(=O)[nH]c1=O
In: Please compare: P and Q . Report which one has the smaller inhibition value. Bench note: the answer is the label of the chosen record.
Out: Q

* * *

# target_of_assay: Thymidine phosphorylase (Escherichia coli K-12) (UniProt P07650)
# test_protocol: Inhibition of Escherichia coli Thymidine Phosphorylase at a concentration of 1000 uM after 40 minutes
observation_type: inhibition (%)

Solved entries (count: 6):
{"compound": "Cc1cn(CCCCCCCP(=O)(O)O)c(=O)[nH]c1=O", "target_of_assay": "Thymidine phosphorylase (Escherichia coli K-12) (UniProt P07650)", "unit_annotation": "%", "inhibition": 63}
{"compound": "Cc1cn(CCCCOCOCP(=O)(O)O)c(=O)[nH]c1=O", "target_of_assay": "Thymidine phosphorylase (Escherichia coli K-12) (UniProt P07650)", "unit_annotation": "%", "inhibition": 0}
{"compound": "Cc1cn(CCCCOCOCP(=O)(OC(C)C)OC(C)C)c(=O)[nH]c1=O", "target_of_assay": "Thymidine phosphorylase (Escherichia coli K-12) (UniProt P07650)", "unit_annotation": "%", "inhibition": 0}
{"compound": "Cc1cn(CCCCCCCCP(=O)(OC(C)C)OC(C)C)c(=O)[nH]c1=O", "target_of_assay": "Thymidine phosphorylase (Escherichia coli K-12) (UniProt P07650)", "unit_annotation": "%", "inhibition": 0}
{"compound": "CCOP(=O)(CCCCCCCCCn1cc(C)c(=O)[nH]c1=O)OCC", "target_of_assay": "Thymidine phosphorylase (Escherichia coli K-12) (UniProt P07650)", "unit_annotation": "%", "inhibition": 3}
{"compound": "CCOP(=O)(CCCCCCCn1cc(C)c(=O)[nH]c1=O)OCC", "target_of_assay": "Thymidine phosphorylase (Escherichia coli K-12) (UniProt P07650)", "unit_annotation": "%", "inhibition": 0}

P = Cc1cn(C/C=C\COCP(=O)(OC(C)C)OC(C)C)c(=O)[nH]c1=O
Q = Cc1cn(CCCCCCP(=O)(O)O)c(=O)[nH]c1=O
In: Please compare: P and Q . Report which one has the smaller inhibition value. Bench note: the answer is the label of the chosen record.
Out: P
(P: 0%, Q: 5%)

* * *

# target_of_assay: Thymidine phosphorylase (Escherichia coli K-12) (UniProt P07650)
# test_protocol: Inhibition of Escherichia coli Thymidine Phosphorylase at a concentration of 1000 uM after 60 minutes
observation_type: inhibition (%)

Solved entries (count: 3):
{"compound": "CCOP(=O)(CCCCCCCCn1c(N)c(Br)c(=O)[nH]c1=O)OCC", "unit_annotation": "%", "inhibition": 10}
{"compound": "Cc1cn(C/C=C\\COCOCP(=O)(OC(C)C)OC(C)C)c(=O)[nH]c1=O", "unit_annotation": "%", "inhibition": 0}
{"compound": "CCOP(=O)(CCCCCCCn1cc(C)c(=O)[nH]c1=O)OCC", "unit_annotation": "%", "inhibition": 0}

P = Cc1cn(CCCCOCP(=O)(O)O)c(=O)[nH]c1=O
Q = Nc1c(Br)c(=O)[nH]c(=O)n1CCCCCCCCP(=O)(O)O
In: Please compare: P and Q . Report which one has the smaller inhibition value. Bench note: the answer is the label of the chosen record.
Out: P

a = Cc1cn(CCCCCCCCP(=O)(OC(C)C)OC(C)C)c(=O)[nH]c1=O
b = O=c1[nH]c(=O)n(CCCCCCCCP(=O)(O)O)c2[nH]ccc12
c = Cc1cn(C/C=C\COCOCP(=O)(O)O)c(=O)[nH]c1=O
d = Cc1cn(CCCCCCCCP(=O)(O)O)c(=O)[nH]c1=O
In: Please rank these compounds by inhibition in descending order. Use the labels to give the ranking in the order requested.
Out: b, d, c, a
